Hey, just so you know, these numbers are from paper PMC5454392.

Molecular target: T1, CaBdf1 BD1 (GST-tagged, wild-type) (Candida albicans (strain SC5314 / ATCC …, UniProt Q5A4W8))
T1 chain: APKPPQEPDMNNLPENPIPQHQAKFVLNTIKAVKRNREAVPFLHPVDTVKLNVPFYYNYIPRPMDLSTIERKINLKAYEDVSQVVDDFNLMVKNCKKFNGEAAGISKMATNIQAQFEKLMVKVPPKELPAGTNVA
Assay: histone peptide array (Active Motif MODified), 1 uM GST-tagged bromodomain, anti-GST detection, normalized mean intensity
Square brackets hold non-standard residues; d marks the D form. Ends that are not written are not given here. Arg(Me2s) = CN=C(NC)NCCC[C@H](N)C(=O)O; Lys(Me2) = CN(C)CCCC[C@H](N)C(=O)O; pS = N[C@@H](COP(=O)(O)O)C(=O)O; Lys(Me) = CNCCCC[C@H](N)C(=O)O
propertyLabel: binding score

binder	result
PRKQLATKAAR(Me2s)K(Me3)[pS]APATGG [H3 16-35]	0.00109
ARTKQTARKSTGGKAPRKQ (A R T K Q T A Rme2s Kme2 pS T G G K A P R K Q)	0.00363
A[Arg(Me2s)]T[Lys(Me2)]QTAR[Lys(Me)]STGGKAPRKQ	0.00544
ARTKQTARKSTGGKAPRKQ (A Rme2a T Kac Q T A Rme2s Kme2 S T G G K A P R K Q)	0.00616
